Test: Acute toxicity in ip dosed Royal Hart Wistar rat
Format: organism-based
Settings: in vivo
LD50 for assorted molecules
Number only, in mg/kg; omit the unit.

| molecule | LD50 (mg/kg) |
| --- | --- |
| O=C1CCC2(c3cccs3)OCCCN12 (stereo not drawn) | 467 |
| CCC1(c2ccccc2)C(=O)N=C([O-])NC1=O.[Na+] (stereo not drawn) [PHENOBARBITAL SODIUM] | 225 |
| COc1ccc(C(=O)CCC(=O)NCCCO)cc1 | 800 |
| O=C(CCC(=O)c1ccc(Cl)c(Cl)c1)NCCCO | 500 |
| Cc1ccc(C(=O)CCC(=O)NCCCO)cc1 | 750 |
| O=C1CCC2(c3ccc(Cl)cc3)OCCCN12 (stereo not drawn) | 675 |
| O=C1CCCC2(c3ccccc3)OCCCN12 (stereo not drawn) | 500 |
| Cc1ccc(C(=O)CCC(=O)NCCCO)c(C)c1 | 633 |
| O=C1CCC2(c3ccc(Cl)c(Cl)c3)OCCCN12 (stereo not drawn) | 550 |
| Cc1ccc(C23CCC(=O)N2CCCO3)c(C)c1 (stereo not drawn) | 600 |

Query string: Tell me the measured LD50 of O=C1CCC2(c3ccccc3)OCCCN12 (stereo not drawn) , please.
Result string: 500

Query string: And what about the molecule "O=C(CCC(=O)c1cccs1)NCCCO" ?
Result string: 475

Query string: And what about the molecule O=C1CCC2(c3ccccc3)OCCN12 (stereo not drawn) ?
Result string: 300

###

RD50 for assorted compounds
Tested on: Mus musculus
Experiment: Reinduction of anesthesia-induced loss of righting in dosed mouse administered compound following recovery from hexobarbital anesthesia
Format: functional
Number only, in mg/kg; omit the unit.

| compound | observable | value-units | numeric-result |
| --- | --- | --- | --- |
| O=C1CCC2(c3ccccc3)OCCCN12 (configuration not stated) | RD50 | mg/kg | 34 |
| CCC1(c2ccccc2)C(=O)N=C([O-])NC1=O.[Na+] (configuration not stated) [PHENOBARBITAL SODIUM] | RD50 | mg/kg | 65.6 |
| O=C1CCC2(c3cccs3)OCCCN12 (configuration not stated) | RD50 | mg/kg | 46.5 |

Then this compound:
Query string: Tell me the measured RD50 of O=C1CCC2(c3ccccc3)OCCN12 (configuration not stated) , please.
Result string: 37.5

###

Tested on: Mus musculus
Test: Reinduction of anesthesia-induced loss of righting in dosed mouse administered compound following recovery from hexobarbital anesthesia
Assay type: functional
observable: RD50

Solved cases below.
| molecule | RD50 |
| --- | --- |
| O=C1CCC2(c3ccc(Cl)cc3)OCCCN12 (stereo not drawn) | >100 mg/kg |
| O=C1CCC2(c3ccc(F)cc3)OCCCN12 (stereo not drawn) | 66 mg/kg |
| O=C(CCC(=O)c1cccs1)NCCCO | >300 mg/kg |
| Cc1ccc(C(=O)CCC(=O)NCCCO)c(C)c1 | <150 mg/kg |
| CCC1(c2ccccc2)CCC(=O)NC1=O (stereo not drawn) [GLUTETHIMIDE] | 112.5 mg/kg |

Then this molecule:
Query string: Tell me the measured RD50 of O=C1CCCC2(c3ccccc3)OCCCN12 (stereo not drawn) , please.
Result string: 75 mg/kg

###

Experiment: Acute toxicity in ip dosed Royal Hart Wistar rat
Assay type: organism-based
Conditions: in vivo
observable: LD50 (mg/kg)
Number only, in mg/kg; omit the unit.

Solved cases below.
| molecule | observable | numeric-result |
| --- | --- | --- |
| O=C1CCC2(c3ccc(F)cc3)OCCCN12 (stereo not given) | LD50 | 600 |
| O=C(CCC(=O)c1ccc(Cl)cc1)NCCCO | LD50 | 633 |
| CCC1(c2ccccc2)CCC(=O)NC1=O (stereo not given) [GLUTETHIMIDE] | LD50 | 350 |

Then this molecule:
Query string: Tell me the measured LD50 of Cc1ccc(C23CCC(=O)N2CCCO3)cc1 (stereo not given) , please.
Result string: 675

###

Tested on: Mus musculus
Assay: Reinduction of anesthesia-induced loss of righting in dosed mouse administered compound following recovery from hexobarbital anesthesia
Type: functional
RD50 for assorted compounds

Solved cases below.
| compound | observable | result |
| --- | --- | --- |
| COc1ccc(C(=O)CCC(=O)NCCCO)cc1 | RD50 | <600 mg/kg |
| Cc1ccc(C23CCC(=O)N2CCCO3)cc1 (stereo not drawn) | RD50 | >100 mg/kg |

Then this compound:
Query string: Tell me the measured RD50 of COc1ccc(C23CCC(=O)N2CCCO3)cc1 (stereo not drawn) , please.
Result string: <150 mg/kg

###

Tested on: Mus musculus
Test: Reinduction of anesthesia-induced loss of righting in dosed mouse administered compound following recovery from hexobarbital anesthesia
Type: functional
RD50 for assorted compounds

Solved cases below.
| compound | RD50 |
| --- | --- |
| O=C(CCC(=O)c1ccc(F)cc1)NCCCO | >400 mg/kg |
| O=C1CCCC2(c3ccccc3)OCCN12 (configuration not stated) | 69 mg/kg |
| O=C1CCC2(c3ccc(Cl)c(Cl)c3)OCCCN12 (configuration not stated) | >150 mg/kg |
| Cc1ccc(C(=O)CCC(=O)NCCCO)cc1 | <300 mg/kg |
| O=C(CCC(=O)c1ccc(Cl)c(Cl)c1)NCCCO | >300 mg/kg |
| O=C(CCC(=O)c1ccc(Cl)cc1)NCCCO | <300 mg/kg |

Then this compound:
Query string: Tell me the measured RD50 of Cc1ccc(C23CCC(=O)N2CCCO3)c(C)c1 (configuration not stated) , please.
Result string: <150 mg/kg
